assay: qHTS Assay for inhibitors of the human cytomegalovirus (HCMV); conditions: HFF cells, HCMV-luciferase reporter, 72 h; at 57.5 µM; further: on the % scale 0 is the no-effect control and ±100 the full control effect
In all, about 410,000 compounds went through this assay and about 18,000 (4.4%) were called active. Not shown: some 7% with an inconclusive outcome. No stated cut-off is given here; in the data, active means activity change below about -60%; inconclusive means no clear call, values can overlap the other calls; inactive means above about -39%. Shown is part of a subset that was picked to be rich in actives.
Outcome codes: active, inactive

[
  {
    "Molecule": "CCOc1ccc(NC(=O)c2cnn(-c3ccccc3)c2-n2cccc2)cc1",
    "Class label": "inactive"
  },
  {
    "Molecule": "CC1=C(C(=O)OCc2ccc(C)cc2)C(c2c(Cl)cccc2Cl)CC(=O)N1 (centres undefined)",
    "Class label": "inactive"
  },
  {
    "Molecule": "CCCNC(=O)c1ccc2c(c1)ncn2-c1ccc(C)cc1C",
    "Class label": "inactive"
  },
  {
    "Molecule": "O=C(NCCc1ccc(F)cc1)c1ccc(S(=O)(=O)N2CCCCC2)cc1",
    "Class label": "inactive"
  },
  {
    "Molecule": "NS(=O)(=O)c1ccc(CCNC(=O)c2ccc(Cl)c(S(=O)(=O)N3CCCCCC3)c2)cc1",
    "Class label": "active"
  },
  {
    "Molecule": "COc1cccc(N2CC(NC(=O)/C=C\\c3ccccc3)CC2=O)c1 (centres undefined)",
    "Class label": "inactive"
  },
  {
    "Molecule": "CCC(c1nnnn1C1CCCC1)N(Cc1cccs1)Cc1cc2cccc(C)c2[nH]c1=O (centres undefined)",
    "Class label": "active"
  },
  {
    "Molecule": "COc1ccc(Nc2cc(C(=O)NCCCN(C)c3ccccc3)c3ccccc3n2)c(OC)c1",
    "Class label": "inactive"
  },
  {
    "Molecule": "Cc1cc2oc(=O)cc(CN(C)Cc3ccc(OC(F)F)cc3)c2cc1Cl",
    "Class label": "inactive"
  },
  {
    "Molecule": "O=C(NC1(C(F)(F)F)N=C(c2ccccc2)N(C2CCCCC2)C1=O)c1ccccc1F (centres undefined)",
    "Class label": "inactive"
  },
  {
    "Molecule": "CCSc1ccccc1C(=O)Nc1ccc2c(c1)OCO2",
    "Class label": "inactive"
  },
  {
    "Molecule": "CCN(CC)S(=O)(=O)c1cccc(NC(=O)c2ccc(S(=O)(=O)N3CCCC3)cc2)c1",
    "Class label": "active"
  },
  {
    "Molecule": "CC(Sc1nnc(COc2ccccc2)n1-c1ccccc1)C(=O)O (centres undefined)",
    "Class label": "inactive"
  },
  {
    "Molecule": "COc1cc(NC(=O)COC(=O)c2cc(S(=O)(=O)N3CCOCC3)ccc2F)cc(OC)c1",
    "Class label": "active"
  },
  {
    "Molecule": "COc1ccccc1OCCCn1c(-c2ccc(Cl)cc2)nc2ccccc2c1=O",
    "Class label": "inactive"
  },
  {
    "Molecule": "Cc1ccc(NC(=O)CN2CCCCC2)c2c1CC(C)(C)O2",
    "Class label": "active"
  },
  {
    "Molecule": "COC(=O)CNC(c1ccccc1Cl)c1cc(Br)ccc1NC(=O)CCN1CCOCC1 (centres undefined)",
    "Class label": "inactive"
  },
  {
    "Molecule": "CCOc1ccc(-c2cc3c(=O)n(CC(=O)NCc4ccc(OC)cc4)ccn3n2)cc1",
    "Class label": "inactive"
  },
  {
    "Molecule": "O=C(CSc1ccc(/C=N/NC(=O)c2cccc(F)c2)o1)Nc1ccccc1",
    "Class label": "inactive"
  },
  {
    "Molecule": "O=C(Nc1cc(C(F)(F)F)ccc1Cl)c1cc2nc(-c3ccc4c(c3)OCO4)cc(C(F)(F)F)n2n1",
    "Class label": "inactive"
  },
  {
    "Molecule": "O=[N+]([O-])c1ccccc1S(=O)(=O)Nc1cccc2cccnc12",
    "Class label": "active"
  },
  {
    "Molecule": "Cc1ccc2cccc([N+](=O)[O-])c2n1",
    "Class label": "inactive"
  },
  {
    "Molecule": "COc1ccc(S(=O)(=O)N2CCC(C(=O)N3CCCC3)CC2)cc1C",
    "Class label": "inactive"
  },
  {
    "Molecule": "Cc1cccc2cc(CN(Cc3nnnn3Cc3ccccc3)C3CCCC3)c(=O)[nH]c12",
    "Class label": "inactive"
  },
  {
    "Molecule": "COc1ccccc1CNS(=O)(=O)c1cc(Br)cc2c1N(C(C)=O)C(C)C2 (centres undefined)",
    "Class label": "inactive"
  },
  {
    "Molecule": "COc1ccc(Cc2nnc(SC)[nH]c2=O)cc1",
    "Class label": "inactive"
  },
  {
    "Molecule": "Cc1c(C(=O)NCc2ccccc2)cnn1-c1ccccc1",
    "Class label": "inactive"
  },
  {
    "Molecule": "CN1CCN(S(=O)(=O)c2cccc(C(=O)Nc3cccc(S(N)(=O)=O)c3)c2)CC1",
    "Class label": "inactive"
  },
  {
    "Molecule": "COc1ccc(Cc2nnc(N/N=C/c3ccccc3O)[nH]c2=O)cc1OC",
    "Class label": "active"
  },
  {
    "Molecule": "COc1ccccc1CC(=O)Nc1ccc(S(=O)(=O)N2CCCC2)cc1",
    "Class label": "inactive"
  },
  {
    "Molecule": "O=C(Nc1cccc(S(=O)(=O)N2CCCC2)c1)c1cncc(Br)c1",
    "Class label": "inactive"
  },
  {
    "Molecule": "O=C(NNC(=S)NC(=O)c1cn(-c2ccccc2)nc1-c1ccccc1)c1ccncc1",
    "Class label": "inactive"
  },
  {
    "Molecule": "COc1cccc(CNC(=O)C2CCN(S(=O)(=O)c3ccc4c(ccn4C)c3)CC2)c1",
    "Class label": "inactive"
  },
  {
    "Molecule": "COC(=O)c1ccc(/C=N/OCC(=O)Nc2cc(F)ccc2F)cc1",
    "Class label": "inactive"
  }
]

====

assay: qHTS Assay for inhibitors of the human cytomegalovirus (HCMV); conditions: HFF cells, HCMV-luciferase reporter, 72 h; at 57.5 µM; active compounds read low; further: on the % scale 0 is the no-effect control and ±100 the full control effect
Screen size: about 410,000 compounds; about 18,000 (4.4%) were called active. Another 7% or so got no clear call; they are omitted. The sample as a whole holds a higher share of actives than the screen did.
Parameter activity change, negative = inhibition: see the listing below.
Parameter: activity change, negative = inhibition (%)

[
  {
    "Compound": "COc1ccc(-c2cc(C(=O)N3CCN(c4ccc(F)cc4)CC3)no2)cc1",
    "Parameter": "activity change, negative = inhibition",
    "Recorded value": -76
  },
  {
    "Compound": "CN(CC(=O)O)S(=O)(=O)c1ccc2oc3ccccc3c2c1",
    "Parameter": "activity change, negative = inhibition",
    "Recorded value": -8.55
  },
  {
    "Compound": "Cc1cc(OCC(=O)NCC2(N(C)C)CCCCC2)cc(C)c1Cl",
    "Parameter": "activity change, negative = inhibition",
    "Recorded value": -11.2
  },
  {
    "Compound": "CC1CCCCN1S(=O)(=O)c1ccc(F)c(C(=O)Nc2ccccc2C(F)(F)F)c1 (configuration not stated)",
    "Parameter": "activity change, negative = inhibition",
    "Recorded value": 11
  },
  {
    "Compound": "COc1ccc2cc(CNc3ccc(OC)c(OC)c3)c(=O)n(CC(=O)Nc3ccccc3F)c2c1",
    "Parameter": "activity change, negative = inhibition",
    "Recorded value": 9.9
  },
  {
    "Compound": "CCC1CN(S(=O)(=O)c2cc(-c3cc(C)no3)ccc2C)c2cc(C)ccc2O1 (configuration not stated)",
    "Parameter": "activity change, negative = inhibition",
    "Recorded value": -36.6
  },
  {
    "Compound": "COC(=O)c1cccc(Cn2nnc3sc4c(c3c2=O)CCC(C(C)(C)C)C4)c1 (configuration not stated)",
    "Parameter": "activity change, negative = inhibition",
    "Recorded value": 27.6
  },
  {
    "Compound": "O=C(c1cncc(Br)c1)N1CCN(c2ccc([N+](=O)[O-])cc2)CC1",
    "Parameter": "activity change, negative = inhibition",
    "Recorded value": 25.9
  },
  {
    "Compound": "O=C(CSc1cn(CC(=O)N2CCOCC2)c2ccccc12)Nc1ccccc1",
    "Parameter": "activity change, negative = inhibition",
    "Recorded value": 19.2
  },
  {
    "Compound": "O=C(c1cccc(F)c1)N1CCN(c2ccc([N+](=O)[O-])c(N3CCCCC3)c2)CC1",
    "Parameter": "activity change, negative = inhibition",
    "Recorded value": -60.2
  },
  {
    "Compound": "COc1ccccc1C(=O)NCCn1cc(SCc2ccccc2Cl)c2ccccc21",
    "Parameter": "activity change, negative = inhibition",
    "Recorded value": 20.2
  },
  {
    "Compound": "COc1cc(C(=O)Nc2cc(C(F)(F)F)ccc2-n2cncn2)cc(OC)c1OC",
    "Parameter": "activity change, negative = inhibition",
    "Recorded value": -20
  },
  {
    "Compound": "CCOC(=O)C(C)Sc1nnc(CSc2nc3nc(C)cc(C)n3n2)o1 (configuration not stated)",
    "Parameter": "activity change, negative = inhibition",
    "Recorded value": -27.1
  },
  {
    "Compound": "COc1ccc(C(=O)Nc2onc3c2CCCC3)cc1",
    "Parameter": "activity change, negative = inhibition",
    "Recorded value": 1.09
  },
  {
    "Compound": "CC(=O)Nc1cccc(NC(=O)CSc2nccn2Cc2ccc3c(c2)OCO3)c1",
    "Parameter": "activity change, negative = inhibition",
    "Recorded value": -12.3
  },
  {
    "Compound": "Cc1ccc(C)c(N2CCN(CCCNC(=O)Nc3ccc(Cl)cc3)CC2)c1",
    "Parameter": "activity change, negative = inhibition",
    "Recorded value": -76.9
  },
  {
    "Compound": "O=C1C=C(NCCNc2c(F)c(F)c(CO)c(F)c2F)CCC1",
    "Parameter": "activity change, negative = inhibition",
    "Recorded value": 74.7
  },
  {
    "Compound": "COc1ccc(NS(=O)(=O)c2cccc(C(=O)NCCc3ccc(S(N)(=O)=O)cc3)c2)cc1",
    "Parameter": "activity change, negative = inhibition",
    "Recorded value": -1.91
  },
  {
    "Compound": "COc1ccc(NC(=O)NCCN2CCN(c3ccc(C)cc3)CC2)c(Cl)c1",
    "Parameter": "activity change, negative = inhibition",
    "Recorded value": 14.9
  },
  {
    "Compound": "O=[N+]([O-])c1ccc(N2CCN(c3ccc(F)cc3)CC2)cn1",
    "Parameter": "activity change, negative = inhibition",
    "Recorded value": -16.4
  },
  {
    "Compound": "CCn1c(NCCc2ccc(OC)c(OC)c2)nc2c1c(=O)n(C)c(=O)n2C",
    "Parameter": "activity change, negative = inhibition",
    "Recorded value": -71.3
  },
  {
    "Compound": "O=C(c1cc(C(=O)N2CCN(c3ccc(F)cc3)CC2)cc([N+](=O)[O-])c1)N1CCN(c2ccc(F)cc2)CC1",
    "Parameter": "activity change, negative = inhibition",
    "Recorded value": -66.2
  },
  {
    "Compound": "CCn1c(C)c(C)c2cc(C(=O)NCCc3cc(OC)ccc3OC)ccc21",
    "Parameter": "activity change, negative = inhibition",
    "Recorded value": 0
  },
  {
    "Compound": "COc1ccc(CN2CCc3nc(Nc4ccccc4)ncc3C2)c(OC)c1OC",
    "Parameter": "activity change, negative = inhibition",
    "Recorded value": -16.7
  },
  {
    "Compound": "O=C1CN(C(=O)Nc2ccccc2C(F)(F)F)C(c2ccccc2)c2c(sc3c2CCCC3)N1 (configuration not stated)",
    "Parameter": "activity change, negative = inhibition",
    "Recorded value": -16.6
  },
  {
    "Compound": "Cn1c(=O)c2c(nc(NCCc3ccccc3)n2Cc2ccccc2)n(C)c1=O",
    "Parameter": "activity change, negative = inhibition",
    "Recorded value": -84.2
  },
  {
    "Compound": "Cc1ccc2c(c1)N(S(=O)(=O)c1cc(-c3cc(C)no3)ccc1C)CCO2",
    "Parameter": "activity change, negative = inhibition",
    "Recorded value": -81.3
  },
  {
    "Compound": "COc1ccc(N2CCN(C(=O)c3cccs3)CC2)cc1",
    "Parameter": "activity change, negative = inhibition",
    "Recorded value": 57.6
  },
  {
    "Compound": "O=C(CN1CCSc2ccccc21)N1CCN(c2ccccc2)CC1",
    "Parameter": "activity change, negative = inhibition",
    "Recorded value": -1.62
  },
  {
    "Compound": "COCC(C)n1c(C)cc(C(=O)CSc2cc(C)c3ccccc3n2)c1C (configuration not stated)",
    "Parameter": "activity change, negative = inhibition",
    "Recorded value": -3.64
  },
  {
    "Compound": "Cc1c(NS(=O)(=O)c2cccc(C(=O)Nc3ccc(SC(F)F)cc3)c2)c(=O)n(-c2ccccc2)n1C",
    "Parameter": "activity change, negative = inhibition",
    "Recorded value": -2.26
  },
  {
    "Compound": "Cn1c(=O)c2c(nc(NCc3ccccc3)n2CC(N)=O)n(C)c1=O",
    "Parameter": "activity change, negative = inhibition",
    "Recorded value": -13.4
  },
  {
    "Compound": "COc1ccc(C(CNC(=O)c2ccc(NS(=O)(=O)c3ccc(F)c(C)c3)cc2)N(C)C)cc1 (configuration not stated)",
    "Parameter": "activity change, negative = inhibition",
    "Recorded value": -9.49
  },
  {
    "Compound": "COCCn1c(C)cc(C(=O)CSc2nc3ccccc3c(=O)n2C(C)COC)c1C (configuration not stated)",
    "Parameter": "activity change, negative = inhibition",
    "Recorded value": -66
  },
  {
    "Compound": "CC1=C(c2ccc(C)cc2)S(=O)(=O)NC1=NCCCN1CCN(c2cc(C)ccc2C)CC1",
    "Parameter": "activity change, negative = inhibition",
    "Recorded value": -96.1
  },
  {
    "Compound": "CCC1CCCCN1C(=O)Cn1c(=O)n(CCCCCC(=O)NCc2ccccc2)c(=O)c2sccc21 (configuration not stated)",
    "Parameter": "activity change, negative = inhibition",
    "Recorded value": -18.6
  },
  {
    "Compound": "CC(C)c1ccc(S(=O)(=O)N2CCN(C(=O)c3ccc(N4CCCC4)c([N+](=O)[O-])c3)CC2)cc1",
    "Parameter": "activity change, negative = inhibition",
    "Recorded value": -16.3
  }
]
